The reported numbers originate from the supplement of paper PMC5579334.

The following compounds are listed with their measured % inhibition values.
Tested on: HS-Sch-2
measurement-description: % inhibition of CellTiter-Glo viability at highest tested concentration (72 h), relative to DMSO and benzethonium chloride controls; higher = more inhibition
Give just the numeric value; % need not be written.

Measured % inhibition of O=C(/C=C/c1cccc(S(=O)(=O)Nc2ccccc2)c1)NO [Belinostat] (max concentration tested 10000 nM) : 101

Measured % inhibition of CC(C)Nc1cc(-c2c[nH]c(C(=O)N[C@H](CO)c3cccc(Cl)c3)c2)c(Cl)cn1 [Ulixertinib] (max concentration tested 10000 nM) : 68.7

Measured % inhibition of COc1cc2nccc(Oc3ccc(NC(=O)NC4CC4)c(Cl)c3)c2cc1C(N)=O [Lenvatinib] (max concentration tested 2500 nM) : 15
